B1: SLC19A2 (parent)
chain: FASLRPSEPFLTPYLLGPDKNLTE

# Variants of: B1
# Assay method text: protein stability index of a GFP-peptide fusion (GPS, HEK-293T) (PSI 1-6); higher = more stable;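 also: lentivirally expressed fusions sorted by FACS into six bins by GFP to DsRed ratio, PSI derived from sequencing read proportions per bin multiplied by bin number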
# Study conditions: c terminus: a fixed tail appended
Property: protein stability index
Give only the figure.

Answered examples (4):
FASLRPSEPFDTPYLLGPDKNLTE [L11D] ... 2.29
FASLRPSNPFLTPYLLGPDKNLTE [E8N] ... 2.3
FASLRPSEPFLTPYLLGPDKLLTE [N21L] ... 1.87
FMSLRPSEPFLTPYLLGPDKNLTE [A2M] ... 2.36

Give its protein stability index value. Item: FAYLRPSEPFLTPYLLGPDKNLTE [S3Y]
2.53

// protein stability index lookup, key: FASLRPSEPFLGPYLLGPDKNLTE [T12G]
2.35
